System: NCI-H1975
Test: Antiproliferative activity against human NCI-H1975 cells after 72 hrs by CCK8 assay
Format: functional
Details: NCI-H1975, 72 h
measurement type: GI50 (µM)
Give the value in µM but do not write µM after it.

Below are worked cases with known answers.
CCCCNC(=O)c1ccc2c(ccn2-c2ncc3c(n2)N(C2CCCC2)[C@H](CC)C(=O)N3C)c1: 0.99
CC[C@@H]1C(=O)N(C)c2cnc(Nc3ccc(S(=O)(=O)NCCCO)cc3)nc2N1C1CCCC1: 2.14
CC[C@@H]1C(=O)N(C)c2cnc(Nc3ccc(S(=O)(=O)Nc4ccccc4)cc3)nc2N1C1CCCC1: 6
CCC1C(=O)N(C)c2cnc(Nc3ccc(S(=O)(=O)NC)cc3)nc2N1c1ccn(C)n1 (racemic): 18.8

# query: GI50 of entry "CCCNC(=O)c1ccc2c(ccn2-c2ncc3c(n2)N(C2CCCC2)[C@H](CC)C(=O)N3C)c1"
0.786

# query: GI50 of entry "CC[C@@H]1C(=O)N(C)c2cnc(-n3ccc4cc(C(=O)NC(C)C)ccc43)nc2N1C1CCCC1"
1.84

# query: GI50 of entry CCC1C(=O)N(C)c2cnc(Nc3ccc(S(=O)(=O)NCC(C)C)cc3)nc2N1c1ccn(C)n1 (racemic)
15

# query: GI50 of entry CCCNC(=O)c1ccc2c(ccn2-c2ncc3c(n2)N(c2ccn(C)n2)C(CC)C(=O)N3C)c1 (racemic)
11
